Details: rat, in vivo, sc, 50 mg/kg
e = 2'-O-(2-methoxyethyl) (MOE); d = 2'-deoxy (DNA)
QUANTITY_KIND: HCT

Guide cases for HCT, answers given:
[
  {
    "SUBSTANCE": "ISIS 417003: MOE gapmer, nucleobases 1275 to 1318 of SEQ ID NO: 1 (Table 8) (antisense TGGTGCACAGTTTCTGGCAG; MOE gapmer, wing and gap sizes not given here)",
    "HCT": "8%"
  },
  {
    "SUBSTANCE": "ISIS 416825: 5-10-5 MOE gapmer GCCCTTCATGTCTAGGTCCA (sugars from the 5' end e5 d10 e5, backbone and methylation of C not given here)",
    "HCT": "2%"
  },
  {
    "SUBSTANCE": "ISIS 416999: MOE gapmer, nucleobases 1275 to 1318 of SEQ ID NO: 1 (Table 8) (antisense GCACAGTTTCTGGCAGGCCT; MOE gapmer, wing and gap sizes not given here)",
    "HCT": "5%"
  },
  {
    "SUBSTANCE": "ISIS 416892: 3-14-3 MOE gapmer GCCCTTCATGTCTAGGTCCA (sugars from the 5' end e3 d14 e3, backbone and methylation of C not given here)",
    "HCT": "13%"
  },
  {
    "SUBSTANCE": "ISIS 416925: MOE gapmer, nucleobases 1275 to 1318 of SEQ ID NO: 1 (Table 8) (antisense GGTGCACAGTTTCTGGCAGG; MOE gapmer, wing and gap sizes not given here)",
    "HCT": "8%"
  }
]

Query: Would you mind telling me what HCT value was observed for ISIS 416826: 5-10-5 MOE gapmer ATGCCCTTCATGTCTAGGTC (sugars from the 5' end e5 d10 e5, backbone and methylation of C not given here) ?
Response: 7%
